# System: SNB-75
# experiment.notes: NCI tumour cell line growth inhibition, 48 h
The source made the active and inactive calls. Cut-off read from the data, not from the text of the source: active = GI50 up to about 1.1 µM and inactive = higher.
Labels: T (active), F (inactive)

compound: O=C(O)CSc1ccc(N=C=S)cc1
qualitative.label: F

compound: COc1cccc(OC)c1C1ON=C(c2ccccc2)N1C12CC3CC(CC(C3)C1)C2 (configuration not stated)
qualitative.label: F

compound: N=c1sc(N2CCOCC2)nn1CC(=O)c1ccccc1
qualitative.label: F

compound: CNC(c1ccncc1)C(NC)c1ccncc1 (configuration not stated)
qualitative.label: F

compound: CCCCCCCCCOCC(COP(=O)([O-])OCC[N+](C)(C)C)OC (configuration not stated)
qualitative.label: F

compound: CN1CCN(C(=O)c2cn(Cc3cncn3Cc3ccc4c(c3)OCO4)cc2-c2cccc3ccccc23)CC1
qualitative.label: F

compound: O=C1CNC(=O)N1
qualitative.label: F

compound: COCCNC1CCC2(SCCS2)c2[nH]c3ccccc3c21 (configuration not stated)
qualitative.label: F

compound: N#CC1=C2SCCN2C(=O)C(C#N)C12CCCCC2 (configuration not stated)
qualitative.label: F

compound: O=C(O)C/C(=C\c1ccco1)C(=O)O
qualitative.label: F

compound: CN(c1ccccc1)c1nc(=[N+]2CCCC2)ss1.[O-][Cl+3]([O-])([O-])[O-]
qualitative.label: F

compound: Cc1c2ccccc2c(CSC(=N)N)c2ccccc12
qualitative.label: T

* * *

# Test system: SR
# experiment.notes: NCI tumour cell line growth inhibition, 48 h
The source made the active and inactive calls. Cut-off read from the data, not from the text of the source: active = GI50 up to about 1.1 µM and inactive = higher.
Outcome codes: y (active), n (inactive)

compound: C=CCN1C[C@H](C)N([C@H](c2ccc(C(=O)N(CC)CC)cc2)c2cccc(OC)c2)C[C@H]1C
target.or.test.system: SR
qualitative.label: n
//
compound: CCOC(=O)C1OC(C2(C)OC3(OC4(C=CC3O)OC(C(C)C(=O)C(C)C(O)C(C)CC(C)c3c(Cl)cc(C)c(O)c3C(=O)O)C(C)CC4C)C(C)C2OC)CC1O (centres undefined)
target.or.test.system: SR
qualitative.label: y
//
compound: O=[N+]([O-])c1cc(F)ccc1Sc1ccccc1
target.or.test.system: SR
qualitative.label: n
//
compound: COc1ccc(-c2nc(Sc3c([N+](=O)[O-])ncn3C)n[nH]2)cc1
target.or.test.system: SR
qualitative.label: n
//
compound: Cc1cccc(C)c1/N=N/c1ccc(O)c(CN(C)C)c1
target.or.test.system: SR
qualitative.label: n
//
compound: COC(=O)C(=O)C(C(=O)C=C(C)C)C(=O)C(=O)Nc1cccc(C(C)=O)c1 (centres undefined)
target.or.test.system: SR
qualitative.label: n
//
compound: O=C(O)CCCOc1cc(-c2ccccc2F)nc2cc3c(cc12)OCO3
target.or.test.system: SR
qualitative.label: n
//
compound: N#Cc1ccc(C2NN=CC23C(=O)c2ccccc2OC3c2ccccc2)cc1 (centres undefined)
target.or.test.system: SR
qualitative.label: n
//
compound: O=C1c2ccccc2NC(=S)[C@@H]2CCCN12
target.or.test.system: SR
qualitative.label: n

* * *

# GI50 values compiled below
# Test system: HT-29
# experiment.notes: NCI tumour cell line growth inhibition, 48 h
Activity calls are given as the source filed them. Cut-off read from the data, not from the text of the source: active = GI50 up to about 1.1 µM and inactive = higher. Where a SMILES comes first, the peptide text is derived from it. [ ]: non-standard residue; d: D form. The star is where a group is joined. NMeAc5c = CNC1(C(=O)O)CCCC1; Boc = CC(C)(C)OC(=O)*; OBn = c1ccc(CO*)cc1

compound: Cc1ccc(S(=O)ON2CCC(C(=O)O)(c3ccccc3)CC2)cc1 (centres undefined)
GI50: > 100 µM (inactive)
//
compound: C#CCOCn1cnc2c(Sc3c([N+](=O)[O-])ncn3C)ncnc21
GI50: > 100 µM (inactive)
//
compound: Cc1ccc(S(=O)(=O)NNC(C[N+](=O)[O-])c2ccccc2)cc1 (centres undefined)
GI50: 2.02 µM (inactive)
//
compound: CN(C(=O)C(Cc1ccccc1)NC(=O)OC(C)(C)C)C1(C(=O)NC(Cc2ccccc2)C(=O)OCc2ccccc2)CCCC1 (stereo not drawn) (Boc-Phe-[NMeAc5c]-Phe-OBn; configuration not given here)
GI50: 22.3 µM (inactive)
